Molecular target: human SLC6A19 and TMEM27 (Homo sapiens, UniProt Q695T7)
Construct: expressed in transfected cells
Sequence (Q695T7 whole entry): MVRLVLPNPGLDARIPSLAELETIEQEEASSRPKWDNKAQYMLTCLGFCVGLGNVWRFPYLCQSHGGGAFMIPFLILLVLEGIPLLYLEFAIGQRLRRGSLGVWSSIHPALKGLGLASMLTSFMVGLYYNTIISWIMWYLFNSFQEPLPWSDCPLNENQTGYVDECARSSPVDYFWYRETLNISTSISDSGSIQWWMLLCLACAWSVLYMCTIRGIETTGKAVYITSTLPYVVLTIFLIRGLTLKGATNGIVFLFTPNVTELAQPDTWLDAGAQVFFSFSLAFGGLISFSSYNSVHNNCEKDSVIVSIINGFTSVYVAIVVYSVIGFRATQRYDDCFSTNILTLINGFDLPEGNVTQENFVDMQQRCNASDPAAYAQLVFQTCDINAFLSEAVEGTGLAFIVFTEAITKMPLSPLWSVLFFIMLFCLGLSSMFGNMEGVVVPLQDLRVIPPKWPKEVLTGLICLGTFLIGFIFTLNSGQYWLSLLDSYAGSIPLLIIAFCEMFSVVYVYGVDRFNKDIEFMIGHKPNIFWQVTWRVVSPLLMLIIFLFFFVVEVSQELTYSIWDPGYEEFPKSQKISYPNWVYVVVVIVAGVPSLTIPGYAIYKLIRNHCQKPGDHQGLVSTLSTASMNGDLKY
Sequence (Q9HBJ8 15-222 partner): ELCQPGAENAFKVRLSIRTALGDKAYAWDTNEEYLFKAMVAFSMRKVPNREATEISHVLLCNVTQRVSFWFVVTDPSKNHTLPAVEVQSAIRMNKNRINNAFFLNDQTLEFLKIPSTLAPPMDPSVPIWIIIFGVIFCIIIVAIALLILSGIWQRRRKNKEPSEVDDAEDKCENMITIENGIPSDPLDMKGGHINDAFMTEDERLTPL
Assay: 13C6,15N-isoleucine uptake in CHO cells with doxycycline-inducible expression of human SLC6A19 and TMEM27, RapidFire mass spectrometry (Example B-2)
Assay type: cell-based
Details: read-out: SLC6A19_RapidFire Uptake Assay IC50
pIC50: −log10 of the molar value. Counter-ions that a name gives are not always drawn.
READOUT KIND: pIC50

Solved cases below.
O=C(NCc1cc2cc(Cl)c(OCc3cccc(F)n3)cc2[nH]1)N1CCCC1	6.94
CC1(C(=O)NCc2cc3ccc(OCC4CCOC4)cc3[nH]2)CC1 (stereo not shown)	5.35
CC(C)C(=O)NCc1cc2cc(F)c(OCc3cscn3)cc2[nH]1	7.31
CC1(C(=O)NCc2cc3ccc(OCc4ccon4)cc3[nH]2)CC1	6.77
CC1(C(=O)NCc2cc3cc(Cl)c(OCc4ccccn4)cc3[nH]2)CC1	7.15
CC1(C(=O)NCc2cc3ccc(OCc4cncs4)cc3[nH]2)CC1	6.31
CC1(C(=O)NCc2cc3ccc(NCc4ccccn4)cc3[nH]2)CC1	5.74
O=C(NCc1cc2cc(Cl)c(OCc3cccc(F)n3)cc2[nH]1)N1CCC1	6.76

(A) O=C(NCc1cc2cc(Cl)c(OCc3cccc(F)n3)cc2[nH]1)C1CC1
(B) Cc1nc(COc2cc3[nH]c(CNC(=O)C4CC4)cc3cc2F)co1
Ask: Pick the one with the larger pIC50: A vs B Answer with the label corresponding to your selection.
Result: A

(A) CC(=O)NCc1cc2cc(F)c(OCc3cc(C)on3)cc2[nH]1
(B) CC(C)C(=O)NCc1cc2cc(Cl)c(OCc3ccon3)cc2[nH]1
Ask: I would appreciate it if you could say which entry, A or B , has the lower pIC50 value. Answer with the label corresponding to your selection.
Result: A
(A: 6.15, B: 6.99)

(1) CC1(C(=O)NCc2cc3cc(C(F)(F)F)c(OCc4cscn4)cc3[nH]2)CC1
(2) CNC(=O)NCc1cc2cc(Cl)c(OCc3cc(C)no3)cc2[nH]1
(3) CC1(C(=O)NCc2cc3ccc(OCc4cccnc4F)cc3[nH]2)CC1 [Compound 98, formate]
(4) O=C(NCc1cc2ccc(OCc3ccon3)cc2[nH]1)N1CCCCC1
(5) CC(=O)NCc1cc2cc(F)c(NCc3ccon3)cc2[nH]1
Ask: Returns the items ordered by pIC50, from maximum to minimum. Thanks in advance for listing the labels in the requested order.
Result: 2, 1, 3, 4, 5
